Tested on: Enterococcus sp.
Experiment: in vitro antibacterial evaluation, MIC by broth dilution
Assay type: cell-based
Conditions: Enterococcus faecalis (GC 4552); broth dilution, 18 hours at 35° C.
Measurement Kind: MIC Enterococcus faecalis (GC 4552) (µg/mL)
Answers are plain numbers, in µg/mL.

CC(c1ccccc1)C1NC(=O)CNC(=O)C(CO)NC(=O)C(C(O)C2CNC(=N)N2C2OC(CO)C(O)C(O)C2O)NC(=O)C(C(O)C2CNC(=N)N2)NC(=O)C(Cc2ccc(OC3OC(COC(=O)CCC4CCCC4)C(OC4OC(CO)C(O)C(O)C4O)C(O)C3O)cc2)NC1=O (centres unmarked) [Example 100b]    8

// moving on: another record for MIC Enterococcus faecalis (GC 4552)
Enquiry: Entry CCCCCCN=C1NCC(C(O)C2NC(=O)C(C(O)C3CNC(=N)N3)NC(=O)C(Cc3ccc(OC4OC(CO)C(OC5OC6COC7(OC6C(O)C5O)C5CC6CC(C5)CC7C6)C(O)C4O)cc3)NC(=O)C(C(C)c3ccccc3)NC(=O)CNC(=O)C(CO)NC2=O)N1C1OC(CO)C(O)C(O)C1O (centres unmarked) has what MIC Enterococcus faecalis (GC 4552)?
Return: 8

Data origin: patent US6914045B2
